protocol_description: Aqueous solubility
Format: physicochemical
setup_conditions: 37 °C, water, thermodynamic from solid, Aqueous Solubility (37 °C), HCl hydrate
parameter_measured: solubility at 24 h

Measured solubility at 24 h of CN(C)c1cc(-c2ccncc2)c(-c2ccc3ccccc3c2)nn1 [MW108] : 370 mM

---

target_system: EphB2 (Homo sapiens, UniProt P29323)
Sequence (P29323 19-1055): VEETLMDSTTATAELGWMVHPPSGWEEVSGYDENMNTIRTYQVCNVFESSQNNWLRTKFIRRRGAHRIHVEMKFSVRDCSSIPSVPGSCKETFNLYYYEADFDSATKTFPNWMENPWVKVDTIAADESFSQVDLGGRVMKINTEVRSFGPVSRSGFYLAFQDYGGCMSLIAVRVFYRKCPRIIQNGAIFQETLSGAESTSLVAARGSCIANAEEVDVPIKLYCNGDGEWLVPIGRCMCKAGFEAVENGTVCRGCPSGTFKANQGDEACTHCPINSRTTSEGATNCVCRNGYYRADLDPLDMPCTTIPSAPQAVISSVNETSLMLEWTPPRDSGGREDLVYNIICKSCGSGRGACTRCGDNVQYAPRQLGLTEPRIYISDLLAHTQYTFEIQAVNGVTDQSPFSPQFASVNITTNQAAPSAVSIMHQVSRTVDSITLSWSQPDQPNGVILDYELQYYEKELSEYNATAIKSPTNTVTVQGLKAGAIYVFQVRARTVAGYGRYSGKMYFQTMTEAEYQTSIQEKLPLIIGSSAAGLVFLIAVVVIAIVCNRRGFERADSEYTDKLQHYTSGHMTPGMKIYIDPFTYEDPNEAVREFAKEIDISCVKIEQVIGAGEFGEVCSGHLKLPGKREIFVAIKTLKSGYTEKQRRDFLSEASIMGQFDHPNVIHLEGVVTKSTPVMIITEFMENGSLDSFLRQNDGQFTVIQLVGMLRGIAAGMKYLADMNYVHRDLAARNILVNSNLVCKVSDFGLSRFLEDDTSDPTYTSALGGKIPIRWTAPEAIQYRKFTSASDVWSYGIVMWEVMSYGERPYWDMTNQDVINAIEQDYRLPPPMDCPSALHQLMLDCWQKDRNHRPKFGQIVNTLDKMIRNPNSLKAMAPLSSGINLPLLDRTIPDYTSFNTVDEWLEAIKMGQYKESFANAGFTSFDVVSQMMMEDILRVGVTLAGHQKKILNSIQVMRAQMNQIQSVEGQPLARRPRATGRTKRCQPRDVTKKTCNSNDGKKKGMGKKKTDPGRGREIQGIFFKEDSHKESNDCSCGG
parameter_measured: IC50 (µM)
Just the number please, in µM, no unit attached.

Recorded result, `CN(C)c1cc(-c2ccncc2)c(-c2ccc3ccccc3c2)nn1` , IC50: 16.2

---

target_system: NLK (Homo sapiens)
Sequence (Q9UBE8 1-527): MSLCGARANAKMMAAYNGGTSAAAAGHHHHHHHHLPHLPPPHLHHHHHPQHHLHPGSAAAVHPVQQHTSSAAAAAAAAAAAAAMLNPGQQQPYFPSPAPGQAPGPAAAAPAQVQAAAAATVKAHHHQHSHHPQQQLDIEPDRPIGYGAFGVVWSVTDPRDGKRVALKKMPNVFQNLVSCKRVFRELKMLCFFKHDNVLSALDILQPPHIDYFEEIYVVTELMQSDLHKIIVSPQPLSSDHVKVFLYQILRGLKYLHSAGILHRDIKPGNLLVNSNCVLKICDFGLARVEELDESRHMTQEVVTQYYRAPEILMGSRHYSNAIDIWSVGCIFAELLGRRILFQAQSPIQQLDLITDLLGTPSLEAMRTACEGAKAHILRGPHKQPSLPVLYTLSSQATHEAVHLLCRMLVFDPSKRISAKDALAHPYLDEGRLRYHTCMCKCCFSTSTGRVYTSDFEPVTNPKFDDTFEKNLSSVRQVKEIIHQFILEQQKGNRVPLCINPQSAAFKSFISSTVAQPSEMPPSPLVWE
This listing pairs compounds with measured IC50.
Dear colleague, please return just the value in nM, with no unit written.

* CN(C)c1cc(-c2ccncc2)c(-c2cccc3ccccc23)nn1 | 206

Per the reported NLK (Homo sapiens) data, `CN(C)c1cc(-c2ccncc2)c(-c2ccc3ccccc3c2)nn1` has IC50 of 1210

---

protocol_description: Acid dissociation constant (pKa)
Type: physicochemical
setup_conditions: water with methanol co-solvent, ionic strength 0.15 M KCl, 22±2°C, read-out: pKa (UV method), second value
parameter_measured: pKa
Output spec: single numeric token, no unit.

get_value(item= `CN(C)c1cc(-c2ccncc2)c(-c2cccc3ccccc23)nn1` , readout=pKa) returns 3.19

---

target_system: c-RAF (Homo sapiens)
Sequence (P04049 whole entry): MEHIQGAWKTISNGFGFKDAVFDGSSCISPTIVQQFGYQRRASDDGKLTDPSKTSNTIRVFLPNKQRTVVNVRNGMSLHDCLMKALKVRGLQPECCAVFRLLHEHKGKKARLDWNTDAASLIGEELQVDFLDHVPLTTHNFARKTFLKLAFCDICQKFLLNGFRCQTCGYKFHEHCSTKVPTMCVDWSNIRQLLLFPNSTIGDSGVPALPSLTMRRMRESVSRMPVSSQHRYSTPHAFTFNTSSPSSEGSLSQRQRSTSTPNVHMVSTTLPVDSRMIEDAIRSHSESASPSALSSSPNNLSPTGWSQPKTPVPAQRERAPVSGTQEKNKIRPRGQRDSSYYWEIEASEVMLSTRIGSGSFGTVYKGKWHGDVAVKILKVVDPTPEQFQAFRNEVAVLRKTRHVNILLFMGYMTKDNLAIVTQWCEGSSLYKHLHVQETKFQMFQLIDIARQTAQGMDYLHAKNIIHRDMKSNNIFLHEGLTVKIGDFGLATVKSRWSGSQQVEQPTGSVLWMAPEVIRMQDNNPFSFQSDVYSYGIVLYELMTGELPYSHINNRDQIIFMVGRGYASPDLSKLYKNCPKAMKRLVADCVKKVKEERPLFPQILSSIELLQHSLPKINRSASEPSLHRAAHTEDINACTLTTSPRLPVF
parameter_measured: IC50 (µM)
Answer in µM, number only, no unit symbol.

Lab note: measured IC50 of `CN(C)c1cc(-c2ccncc2)c(-c2ccc3ccccc3c2)nn1` was 9.12

---

target_system: JNK3 (Homo sapiens, UniProt P53779)
Sequence (P53779 whole entry): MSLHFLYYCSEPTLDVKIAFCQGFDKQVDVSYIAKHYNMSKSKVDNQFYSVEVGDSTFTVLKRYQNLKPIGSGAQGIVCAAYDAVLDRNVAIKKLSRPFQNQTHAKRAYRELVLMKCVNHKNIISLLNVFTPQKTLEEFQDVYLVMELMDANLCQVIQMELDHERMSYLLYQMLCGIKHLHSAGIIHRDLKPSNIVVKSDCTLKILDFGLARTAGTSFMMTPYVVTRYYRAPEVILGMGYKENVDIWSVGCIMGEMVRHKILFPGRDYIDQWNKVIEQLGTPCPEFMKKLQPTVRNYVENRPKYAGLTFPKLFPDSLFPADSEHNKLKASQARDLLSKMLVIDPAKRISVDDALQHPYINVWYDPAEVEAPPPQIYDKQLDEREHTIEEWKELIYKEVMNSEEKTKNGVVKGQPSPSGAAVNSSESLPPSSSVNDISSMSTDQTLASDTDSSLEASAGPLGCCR
protocol_description: Kinome profiler screen
Assay type: biochemical
parameter_measured: pIC50
A value of pIC50 is the negative decimal logarithm of a concentration given in moles per litre.

response.value for CN(C)c1cc(-c2ccncc2)c(-c2ccc3ccccc3c2)nn1 [MW108] (field: pIC50) = 5.90

---

protocol_description: Dose escalation adverse event screen (SHIRPA based)
Assay type: in vivo
setup_conditions: highest dose at which no adverse events are observed in dose escalation studies, mice
The entries below come with measured Dose Escalating Adverse Event Screen / Adverse Pharm Dose values attached.

Previously resolved entries follow.
• CN(C)c1cc(-c2ccncc2)c(-c2cccc3ccccc23)nn1 = ≥ 200 mg/kg
• c1ccc(-c2nnc(N3CCN(c4ncccn4)CC3)cc2-c2ccncc2)cc1 [MW069a] = 60 mg/kg
• CN(C)c1cc(-c2ccncc2)c(-c2ccc3ccccc3c2)nn1 = ≥ 200 mg/kg
• CN(C)c1cc(-c2ccncc2)c(-c2ccccc2)nn1 = > 200 mg/kg
• CCCN(C)c1cc(-c2ccncc2)c(-c2ccccc2)nn1 = > 200 mg/kg
• CN1CCN(c2cc(-c3ccncc3)c(-c3ccccc3)nn2)CC1 = > 200 mg/kg

Continue with the compound presented below.
The reported value for `CCN(CC)c1cc(-c2ccncc2)c(-c2ccccc2)nn1` in terms of Dose Escalating Adverse Event Screen / Adverse Pharm Dose is > 200 mg/kg

---

target_system: DDR2 (Homo sapiens)
Sequence (Q16832 22-855): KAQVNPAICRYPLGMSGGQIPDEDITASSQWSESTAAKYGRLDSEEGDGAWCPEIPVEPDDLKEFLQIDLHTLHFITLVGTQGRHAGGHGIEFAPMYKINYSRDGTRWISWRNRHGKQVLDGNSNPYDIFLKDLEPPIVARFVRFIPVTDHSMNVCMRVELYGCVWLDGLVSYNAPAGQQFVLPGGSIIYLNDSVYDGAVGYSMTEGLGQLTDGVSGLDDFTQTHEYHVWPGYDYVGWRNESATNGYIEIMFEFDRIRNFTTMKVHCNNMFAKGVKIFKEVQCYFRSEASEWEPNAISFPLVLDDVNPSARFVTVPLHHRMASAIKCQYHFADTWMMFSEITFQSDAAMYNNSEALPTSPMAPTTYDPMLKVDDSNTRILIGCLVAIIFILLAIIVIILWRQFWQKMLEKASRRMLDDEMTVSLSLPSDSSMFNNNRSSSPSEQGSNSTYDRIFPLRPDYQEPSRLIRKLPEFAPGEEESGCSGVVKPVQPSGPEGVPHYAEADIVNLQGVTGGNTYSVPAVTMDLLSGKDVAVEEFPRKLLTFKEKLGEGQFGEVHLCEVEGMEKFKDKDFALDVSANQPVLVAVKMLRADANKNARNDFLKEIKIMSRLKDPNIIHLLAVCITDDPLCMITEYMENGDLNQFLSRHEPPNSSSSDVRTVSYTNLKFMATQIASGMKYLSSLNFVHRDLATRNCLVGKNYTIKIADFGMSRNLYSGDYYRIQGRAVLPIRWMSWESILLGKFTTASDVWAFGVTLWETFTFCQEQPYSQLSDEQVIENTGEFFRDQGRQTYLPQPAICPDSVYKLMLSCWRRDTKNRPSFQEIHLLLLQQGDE
parameter_measured: IC50 (nM)
Expressed in nM, but write only the number.

Documented IC50 of CN(C)c1cc(-c2ccncc2)c(-c2ccc3ccccc3c2)nn1 [MW108] : 2860

---

protocol_description: Aqueous solubility
Assay type: physicochemical
setup_conditions: water, 37 °C, water, thermodynamic from solid, hydrochloride hydrate form, 24 h; read-out: Aqueous Solubility (37ºC), HCl hydrate
parameter_measured: solubility at 24 h (mM)
I only need the number, in mM, no unit after it.

Measured solubility at 24 h of `CN(C)c1cc(-c2ccncc2)c(-c2cccc3ccccc23)nn1` : 840

---

protocol_description: Aqueous solubility
Format: physicochemical
setup_conditions: 37 °C, water, thermodynamic from solid, Aqueous Solubility (37 °C)
parameter_measured: solubility at 24 h (µM)
Numbers only; they are read as µM.

The compound identified as CN(C)c1cc(-c2ccncc2)c(-c2ccc3ccccc3c2)nn1 [MW108] registered its solubility at 24 h at 58
